Data provenance is PubChem BioAssay (NCI).

# protocolDetails: NCI Yeast Anticancer Drug Screen. Data for the bub3 strain (AID 167)
# measurementConditions: S. cerevisiae bub3 mutant strain, at 1.2 µM, stronger effect = higher value
# Method: Growth inhibition of yeast strains with defined genetic alterations is measured as a screen for potential anti-cancer activity. Selected strains with alterations in DNA damage repair or cell cycle control were exposed to compounds and growth inhibition was measured relative to vehicle treated controls. The strain used in this assay is bub3
About 79,000 compounds went through this panel and 15% of them were active in at least one assay; those are over-represented in the sample as a whole.
quantityMeasured: growth inhibition (%)
The answer is to be given in %; state only the numeric part.

Ask | Identify growth inhibition associated with the molecule O=C(/C=C(/c1ccccc1)N1CCCCC1)c1ccccc1
Reply | 2

Ask | Indicate its recorded growth inhibition; the molecule in question is COc1ccc(/C=C/C(=O)c2ccccc2)cc1OC
Reply | 4

Ask | Report measured growth inhibition; entry is COC(=O)CC1CCc2c(ccc3ccccc23)C1(C)C(=O)OC (stereo not drawn)
Reply | 3

Ask | Could you please provide reported growth inhibition for CCc1cc(O)c(Cl)c(C)c1Cl ? Thanks!
Reply | -11

Ask | Please give the documented growth inhibition of O=C(O)c1cc2ccccc2c2c1C(=O)c1ccccc1-2
Reply | -1

Ask | Tell me its growth inhibition given CCC(C)(C)c1ccc(Oc2cccc(C(=O)O)c2)cc1 as the entry.
Reply | -8

Ask | Identify growth inhibition associated with the molecule COc1cc2ccnc(-c3c4ccccc4c(N)c4c(OC)c(OC)ccc34)c2cc1OC
Reply | -5

Ask | Return reported growth inhibition. Input molecule: O=C1N=C2SC=C(NC(=S)Nc3ccccc3)N2NC12c1ccccc1-c1ccccc12
Reply | 10

----------
Give growth inhibition for every item shown.
# protocolDetails: NCI Yeast Anticancer Drug Screen. Data for the wt2 strain (AID 169);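 further: 0% = growth of vehicle-treated yeast cultures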
# measurementConditions: S. cerevisiae wt2 strain growth inhibition; at 1.2 µM; stronger effect = higher value
The panel holds about 79,000 compounds, 15% with a hit somewhere; the sample as a whole holds those more often. Calls of active or inactive are those of the source. Cut-off read from the data, not from the text of the source: active = growth inhibition above about 70%; inactive = the rest.

Ask | Please look at this compound and report its growth inhibition: Cc1c2ccnc(C(=O)NCCN(C)C)c2cc2c3cc(O)ccc3n(C)c12
Reply | 1% (inactive)

Ask | Look up and state reported growth inhibition for COC(=O)/C=C(/CC(=O)OC)C(=O)OC
Reply | -3% (inactive)

Ask | Please give measured growth inhibition of the following entry: COc1ccc(NC(=O)CC2SC(=Nc3ccccc3C)NC2=O)c([N+](=O)[O-])c1 (configuration not stated)
Reply | -1% (inactive)

Ask | Please report growth inhibition for the following compound: COc1ccc(C(=O)C(CN(C)C)CN(C)C)cc1
Reply | 12% (inactive)

Ask | Determine from records and report growth inhibition for CC1=C(C(=O)NCc2ccccc2)C(c2ccccc2)C(C(=O)NCc2ccccc2)=C(C)N1
Reply | -1% (inactive)

Ask | Give growth inhibition for the following compound: CC(C)/C(Cl)=N\OC(=O)Nc1ccc(F)cc1F
Reply | 0% (inactive)

Ask | Specify measured growth inhibition for Cc1cc(NCCCCCCCCNc2cc(C)nc3cc(N)ccc23)c2ccc(N)cc2n1 .
Reply | -39% (inactive)

Ask | Identify measured growth inhibition associated with COc1nc2c(c(=O)n1C)N=C(c1ccccc1)[C@H](C(CC(=O)c1ccccc1)c1ccccc1)C(c1ccccc1)N2 (some centres not stated)
Reply | -8% (inactive)

Ask | Indicate the recorded growth inhibition value for this compound: Cc1cc(S(=O)(=O)Nc2nnc3cnc4ccccc4n23)c(S)cc1Cl
Reply | -1% (inactive)

Ask | Specify measured growth inhibition for CCOC1=C/C(=N\Nc2ccc([N+](=O)[O-])cc2)CCC1 .
Reply | -1% (inactive)

Ask | Give the value of growth inhibition reported for the following: CC(=O)OCC(C)Cc1cc2c(cc1Br)OCO2 (configuration not stated)
Reply | -1% (inactive)

Ask | Could you please provide reported growth inhibition for COc1cc([C@@H]2c3cc4c(cc3[C@@H](Nc3ccc(NC(=O)c5cc([N+](=O)[O-])cn5C)cc3)[C@H]3COC(=O)[C@H]23)OCO4)cc(OC)c1O ? Thanks!
Reply | -28% (inactive)
